Tested on: A549
assay_explanation: NCI tumour cell line growth inhibition, 48 h
Active and inactive are the calls of the source. Rule as the data show it: active = GI50 up to about 1.1 µM and inactive = higher.
The compounds listed here are annotated with their GI50.
endpoint_name: GI50

COc1ccc(C2=NN(C(=O)c3ccccc3)C(O)(c3cc(F)c(Cl)cc3Cl)C2)cc1OC (stereo unspecified)
93.8 µM (inactive)
C(=N\Nc1nnc2c(n1)[nH]c1ccccc12)/c1cccnc1
> 100 µM (inactive)
CCN(CC)c1nnc(CCCCCCCCc2nnc(N(CC)CC)o2)o1
> 100 µM (inactive)
Cn1c(=O)cc(/N=N\c2ccc(Cl)c(Cl)c2)[nH]c1=O
> 100 µM (inactive)
Cc1ccc(OCC2OC(n3cnc4nc(Nc5ccc(Cl)c(Cl)c5)nc(Cl)c43)CC2Oc2ccc(C)cc2)cc1 (stereo unspecified)
> 100 µM (inactive)
CC1c2ccccc2Cn2cc3c(c21)C(=O)c1cccc(OP(=O)(O)OCc2ccccc2)c1C3=O (stereo unspecified)
> 100 µM (inactive)
O=C1Nc2ccccc2C1=Nc1ccc(S(=O)(=O)Nc2nccs2)cc1
> 100 µM (inactive)
C=C1[C@H](OCC(C)C)[C@@H](O)[C@@H](OC(=O)c2cccnc2)C(C)(C)/C=C/[C@H](C)[C@H](OC(C)=O)[C@@]2(O)C[C@@](C)(OC(C)=O)[C@H](OC(=O)c3ccccc3)[C@@H]2[C@H]1OC(C)=O
0.0459 µM (active)
Cc1ccc(S(=O)(=O)CC2(Br)CCc3ccccc3C2=O)cc1 (stereo unspecified)
45.3 µM (inactive)
O=c1ccs[nH]1
19.9 µM (inactive)
CC1(C)OCC(C2OC3OC(C)(C)OC3C2N)O1 (stereo unspecified)
> 100 µM (inactive)
Cc1nc2ccccc2c(=O)n1NC(=O)c1ccccn1
> 100 µM (inactive)
O=[N+]([O-])c1cc(-c2ccc([As](=O)(O)O)cc2)ccc1[As](=O)(O)O
> 100 µM (inactive)
c1ccc2c(c1)nnn1c3cnccc3nc21
30.9 µM (inactive)
CN(C)c1n2c3cc([N+](=O)[O-])ccc3[n+]3c(N(C)C)n4ccccc4c3c2c2cccc[n+]12.[O-][Cl+3]([O-])([O-])[O-].[O-][Cl+3]([O-])([O-])[O-]
> 100 µM (inactive)
CCCCCCCSCC(O)COC(c1ccccc1)(c1ccccc1)c1ccccc1 (stereo unspecified)
26.7 µM (inactive)
O=C1C=CC(=O)c2c(NCC3CC3)ccc(NCC3CC3)c21
47.8 µM (inactive)
O=C(NNCC(F)(F)F)c1ccncc1
> 100 µM (inactive)
COc1cccc2c1OC1c3ccccc3OCC1(O)C2 (stereo unspecified)
> 100 µM (inactive)
Cc1ccc(NCCO)cc1
> 100 µM (inactive)
COc1ccc2nc(NC(=O)C(=O)C(C#N)c3ccc(CC#N)cc3)sc2c1 (stereo unspecified)
> 100 µM (inactive)

----------
System: SK-OV-3
assay_explanation: NCI tumour cell line growth inhibition, 48 h
The source made the active and inactive calls. Rule as the data show it: active = GI50 up to about 1.1 µM and inactive = higher.
endpoint_name: GI50

O=C(NNC(=O)c1ccccc1S)c1ccccc1S [BIS(THIOSALICYL)HYDRAZIDE]
> 25 µM (inactive)
O=C1Nc2c(Cl)cc(Cl)cc2/C1=N/N=C/c1ccccc1O
30.6 µM (inactive)
Cn1c2cc([N+](=O)[O-])ccc2c(=O)c2c(O)cc3c(c21)C=CC(C)(C)O3
21.9 µM (inactive)
COC(=O)CCc1cc(OC)c2c(c1)[C@H](C(=O)OC)[C@@H](c1ccc(O)c(OC)c1)O2
42.8 µM (inactive)
O=C(C[C@H](NC(=O)OCc1ccccc1)C(=O)NC1Cc2ccccc2OC1=O)OCc1ccccc1 (stereo not given in full)
> 100 µM (inactive)

----------
Test system: DMS-114
assay_explanation: NCI tumour cell line growth inhibition, 48 h
Calls of active or inactive are those of the source. No stated cut-off is given here; in the data, active = GI50 up to about 1.1 µM and inactive = higher.
endpoint_name: GI50

COC(=O)C(Cc1cc(OC)c(OC)c(OC)c1)C(=O)OC
> 320 µM (inactive)
O=C(CCc1nnc2s/c(=C\c3ccc4c(c3)OCO4)c(=O)n12)Nc1cc(Cl)ccc1Cl
> 100 µM (inactive)
CNC(=O)NCCCCC(NC(=O)OCc1ccccc1)C(=O)OCc1ccccc1 (centres undefined)
23.6 µM (inactive)
Cc1cc(Cl)ccc1NC(=O)CC1SC(NC(=O)c2ccccc2Cl)=NC1=O (centres undefined)
20.4 µM (inactive)
CCN(CC)CCNc1ccc(CO)c2sc3ccccc3c(=O)c12
11.5 µM (inactive)
CCCN1CN(C(C(=O)N[C@@H]2C(=O)N3C(C(=O)O)=C(C)CSC23)c2ccc(O)cc2)CSC1=S (some centres undefined)
52.4 µM (inactive)
NCCNc1cccc2ccccc12
> 100 µM (inactive)
COc1ccc(/C(=N/Nc2ccccc2)C(c2ccc(OC)cc2)C2OC(=O)c3ccccc32)cc1 (centres undefined)
50 µM (inactive)
Cc1nc(O)nc(CC(O)(c2ccccc2)c2ccccc2)c1-c1ccccc1
80.5 µM (inactive)
COc1c(CC(=O)c2ccccc2)c2ccccc2n1C(C)=O
> 100 µM (inactive)
CCOC(=O)[C@H]1Nc2ccc(OC)cc2C2c3ccccc3CC21 (some centres undefined)
> 100 µM (inactive)
COC(=O)c1ccc(C(=O)OC)c2nc3cc(Cl)ccc3nc12
> 100 µM (inactive)
CC1=NN(C(=O)c2ccncc2)C(=O)C1/N=N/c1ccc(F)cc1 (centres undefined)
> 100 µM (inactive)
Nc1nc[n+](Cc2ccccc2CCO)c2[nH]cnc12
> 100 µM (inactive)
Cc1c(C(=O)/C=C/c2ccccc2[N+](=O)[O-])[n+]([O-])c2ccccc2[n+]1[O-]
5.55 µM (inactive)
O=C1N(Cl)C(=O)C(c2ccc(Cl)cc2)(c2ccc(Cl)cc2)N1Cl
39.9 µM (inactive)
CN1CCN(C)C1c1cccc(C2N(C)CCN2C)c1
> 100 µM (inactive)
Cn1cc2ccccc2c1-c1nc(N)nc(F)n1
85.3 µM (inactive)
CC(C)(CN1CCOCC1)C(=O)/C=C/c1ccc(/C=C/C(=O)C(C)(C)CN2CCOCC2)cc1
0.757 µM (active)
NC1=Nc2ccccc2Sc2ccccc21
> 100 µM (inactive)
COC1C(O)CC(OC2CC(OC3CC(O[C@@H]4C(=O)c5c(cc6cc(OC7CC(OC8CC(O)C(O)C(C)O8)C(O)C(C)O7)c(C)c(O)c6c5O)C[C@H]4[C@H](OC)C(=O)[C@@H](O)[C@@H](C)O)OC(C)C3O)OC(C)C2O)OC1C (some centres undefined)
0.0272 µM (active)
OCCN(CCO)c1ncnc2c1sc(=S)n2-c1ccccc1
> 100 µM (inactive)
O=C(Nc1ccc(Sc2ccc(/N=N/c3c(O)c(S(=O)(=O)O)cc4cc(S(=O)(=O)O)ccc34)cc2)cc1)c1ccc(/N=N/c2c(O)c(S(=O)(=O)O)cc3cc(S(=O)(=O)O)ccc23)cc1
5.42 µM (inactive)
C=C(C)C(=O)OC1CCC2(C)C(CCC3C2CCC2(C)C(c4ccc(=O)oc4)CC4OC432)C1 (centres undefined)
2.43 µM (inactive)

----------
System: NCI-H23
assay_explanation: NCI tumour cell line growth inhibition, 48 h
The source made the active and inactive calls. No stated cut-off is given here; in the data, active = GI50 up to about 1.1 µM and inactive = higher.
endpoint_name: GI50

O=C1N(Cl)C(=O)C(c2ccc(Cl)cc2)(c2ccc(Cl)cc2)N1Cl
> 100 µM (inactive)
COc1cc2nc(-c3ccc4ccccc4c3)nc(O)c2cc1OC
49.2 µM (inactive)
CCOC(=O)C(Cc1ccc(OC(=O)c2ccc(OC)cc2)cc1)NC(=O)C(F)(F)F (stereo unspecified)
45.2 µM (inactive)
CC1(C)OCC(C2OC3OC(C)(C)OC3C2N)O1 (stereo unspecified)
> 100 µM (inactive)
O=c1ccs[nH]1
3.8 µM (inactive)
CC1=C(O)C(=O)c2ccccc2C1=O
12.3 µM (inactive)

----------
Test system: SF-268
assay_explanation: NCI tumour cell line growth inhibition, 48 h
The source made the active and inactive calls. No stated cut-off is given here; in the data, active = GI50 up to about 1.1 µM and inactive = higher.
endpoint_name: GI50

O=C1N/C(=N/N=C/C(O)C(O)C(O)C(O)CO)N/C1=C\c1c[nH]c2ccccc12 (stereo not drawn)
> 100 µM (inactive)
CC1=NN(C(=O)c2ccncc2)C(=O)C1/N=N/c1ccc(F)cc1 (stereo not drawn)
> 100 µM (inactive)
CN1N=CSC12C(=O)N(c1ccc(Cl)cc1)C(=O)N2c1ccc(Cl)cc1 (stereo not drawn)
5.41 µM (inactive)
C[C@H](CCCOS(C)(=O)=O)[C@H]1CC[C@H]2[C@@H]3CC[C@@H]4C[C@H](OS(C)(=O)=O)CC[C@]4(C)[C@H]3CC[C@]12C
27 µM (inactive)
CC1OC(OC2C(OC(=O)[C@]34CCC(C)(C)C[C@H]3C3=CC[C@@H]5[C@@]6(C)CC[C@H](OC7OC(CO)C(O)C(O)C7OC7OC(CO)C(O)C(O)C7O)C(C)(C)[C@@H]6CC[C@@]5(C)[C@]3(C)CC4)OCC(O)C2O)C(O)C(O)C1OC1OCC(O)C(O)C1O (stereo partly drawn)
6.85 µM (inactive)
C/C(CC(=O)Nc1ccc(C)c(C)c1)=N\NC(N)=O
> 100 µM (inactive)
O=C(O)C(F)(OC(F)(F)C(F)(OC(F)(F)C(F)(F)C(F)(F)F)C(F)(F)F)C(F)(F)F (stereo not drawn)
> 100 µM (inactive)
Cc1ccc(C(=O)/C=C2\Nc3ccccc3S\C2=N\CS(=O)(=O)c2ccc(C)cc2)cc1
> 10 µM (inactive)

Origin of values: ChEMBL document CHEMBL1201862
